Origin of measurements: ChEMBL document CHEMBL1137173

# System: Escherichia coli
# ASSAY SUMMARY: Minimum inhibitory concentration required against Escherichia coli
# Assay type: functional
# MEASUREMENT SETUP: Escherichia coli; read-out: MIC
QUANTITY MEASURED: MIC
Quick note: number first, unit second.

Query :: Give a short answer stating reported MIC for `NC[C@@H]1O[C@H](O[C@H]2[C@@H](O)[C@H](O[C@@H]3[C@@H](O)[C@H](N)C[C@H](N)[C@H]3O[C@H]3O[C@H](CN)[C@@H](O)[C@H](O)[C@H]3N)O[C@@H]2CO)[C@H](N)[C@@H](O)[C@@H]1O` .
Result :: 2 µM

Query :: Give a short answer stating reported MIC for `NC[C@@H]1O[C@H](O[C@H]2[C@H](O[C@@H]3OC(CO)(CO)[C@@H](O)[C@H](O)[C@@H]3O)[C@H](O)[C@H](N)C[C@H]2N)[C@@H](N)[C@@H](O)[C@@H]1O` .
Result :: 22 µM

Query :: Give a short answer stating reported MIC for `NC[C@@H]1O[C@H](O[C@H]2[C@H](O[C@@H]3O[C@H](CN)[C@@H](O)[C@H](O)[C@@H]3O)[C@H](O)[C@H](N)C[C@H]2N)[C@@H](N)[C@@H](O)[C@@H]1O` .
Result :: 9 µM

Query :: Give a short answer stating reported MIC for `C[C@]1(CO)O[C@@H](O[C@@H]2[C@H](O)[C@H](N)C[C@@H](N)[C@H]2O[C@H]2O[C@@H](CN)[C@@H](O)[C@H](O)[C@@H]2N)[C@@H](O)[C@@H](O)[C@@H]1O` .
Result :: 87 µM

Query :: Give a short answer stating reported MIC for `NC[C@@H]1O[C@H](O[C@H]2[C@H](O[C@@H]3O[C@H](CO)[C@@H](O)[C@H](O)[C@@H]3O)[C@H](O)[C@H](N)C[C@H]2N)[C@@H](N)[C@@H](O)[C@@H]1O` .
Result :: 11 µM

* * *

Task for the reader: assign each of the following molecules its reported Activity.
# System: Ribosomal RNA A-site
# ASSAY SUMMARY: Binding affinity towards decoding region at A-site of 16s rRNA
# Assay type: nucleic-acid assay
# Set-up: unit not given here
Form field (numeric): enter value without unit.

Query :: Please report the measured Activity for `NC[C@@H]1O[C@H](O[C@H]2[C@H](O[C@@H]3O[C@H](CO)[C@@H](O)[C@H](O)[C@@H]3O)[C@H](O)[C@H](N)C[C@H]2N)[C@@H](N)[C@@H](O)[C@@H]1O` tested on Ribosomal RNA A-site.
Result :: -320

Query :: Please report the measured Activity for C[C@@H]1O[C@@H](O[C@@H]2[C@H](O)[C@H](N)C[C@@H](N)[C@H]2O[C@H]2O[C@@H](CN)[C@@H](O)[C@H](O)[C@@H]2N)[C@@H](O)[C@@H](O)[C@@H]1O (stereo in doubt; form 1) tested on Ribosomal RNA A-site.
Result :: -320

Query :: Please report the measured Activity for `C[C@]1(CO)O[C@@H](O[C@@H]2[C@H](O)[C@H](N)C[C@@H](N)[C@H]2O[C@H]2O[C@@H](CN)[C@@H](O)[C@H](O)[C@@H]2N)[C@@H](O)[C@@H](O)[C@@H]1O` tested on Ribosomal RNA A-site.
Result :: -318

Query :: Please report the measured Activity for `NC[C@@H]1O[C@H](O[C@H]2[C@@H](O)[C@H](O[C@@H]3[C@@H](O)[C@H](N)C[C@H](N)[C@H]3O[C@H]3O[C@H](CN)[C@@H](O)[C@H](O)[C@H]3N)O[C@@H]2CO)[C@H](N)[C@@H](O)[C@@H]1O` tested on Ribosomal RNA A-site.
Result :: -474

Query :: Please report the measured Activity for `NC[C@@H]1O[C@H](O[C@H]2[C@H](O[C@@H]3OC(CO)(CO)[C@@H](O)[C@H](O)[C@@H]3O)[C@H](O)[C@H](N)C[C@H]2N)[C@@H](N)[C@@H](O)[C@@H]1O` tested on Ribosomal RNA A-site.
Result :: -315

Query :: Please report the measured Activity for `NC[C@@H]1O[C@H](O[C@H]2[C@H](O[C@@H]3O[C@H](CN)[C@@H](O)[C@H](O)[C@@H]3O)[C@H](O)[C@H](N)C[C@H]2N)[C@@H](N)[C@@H](O)[C@@H]1O` tested on Ribosomal RNA A-site.
Result :: -394

Query :: Please report the measured Activity for C[C@@H]1O[C@@H](O[C@@H]2[C@H](O)[C@H](N)C[C@@H](N)[C@H]2O[C@H]2O[C@@H](CN)[C@@H](O)[C@H](O)[C@@H]2N)[C@@H](O)[C@@H](O)[C@@H]1O (stereo in doubt; form 2) tested on Ribosomal RNA A-site.
Result :: -314
